Just for reference, patent US7074789B2 is where these values come from.

Answer each item with its documented IC50.
# system.under.test: Kdr (Homo sapiens, UniProt P35968)
# Construct: Kinases are expressed as either kinase domains or full length constructs; made in house
# Sequence (P35968 20-1356, species assumed): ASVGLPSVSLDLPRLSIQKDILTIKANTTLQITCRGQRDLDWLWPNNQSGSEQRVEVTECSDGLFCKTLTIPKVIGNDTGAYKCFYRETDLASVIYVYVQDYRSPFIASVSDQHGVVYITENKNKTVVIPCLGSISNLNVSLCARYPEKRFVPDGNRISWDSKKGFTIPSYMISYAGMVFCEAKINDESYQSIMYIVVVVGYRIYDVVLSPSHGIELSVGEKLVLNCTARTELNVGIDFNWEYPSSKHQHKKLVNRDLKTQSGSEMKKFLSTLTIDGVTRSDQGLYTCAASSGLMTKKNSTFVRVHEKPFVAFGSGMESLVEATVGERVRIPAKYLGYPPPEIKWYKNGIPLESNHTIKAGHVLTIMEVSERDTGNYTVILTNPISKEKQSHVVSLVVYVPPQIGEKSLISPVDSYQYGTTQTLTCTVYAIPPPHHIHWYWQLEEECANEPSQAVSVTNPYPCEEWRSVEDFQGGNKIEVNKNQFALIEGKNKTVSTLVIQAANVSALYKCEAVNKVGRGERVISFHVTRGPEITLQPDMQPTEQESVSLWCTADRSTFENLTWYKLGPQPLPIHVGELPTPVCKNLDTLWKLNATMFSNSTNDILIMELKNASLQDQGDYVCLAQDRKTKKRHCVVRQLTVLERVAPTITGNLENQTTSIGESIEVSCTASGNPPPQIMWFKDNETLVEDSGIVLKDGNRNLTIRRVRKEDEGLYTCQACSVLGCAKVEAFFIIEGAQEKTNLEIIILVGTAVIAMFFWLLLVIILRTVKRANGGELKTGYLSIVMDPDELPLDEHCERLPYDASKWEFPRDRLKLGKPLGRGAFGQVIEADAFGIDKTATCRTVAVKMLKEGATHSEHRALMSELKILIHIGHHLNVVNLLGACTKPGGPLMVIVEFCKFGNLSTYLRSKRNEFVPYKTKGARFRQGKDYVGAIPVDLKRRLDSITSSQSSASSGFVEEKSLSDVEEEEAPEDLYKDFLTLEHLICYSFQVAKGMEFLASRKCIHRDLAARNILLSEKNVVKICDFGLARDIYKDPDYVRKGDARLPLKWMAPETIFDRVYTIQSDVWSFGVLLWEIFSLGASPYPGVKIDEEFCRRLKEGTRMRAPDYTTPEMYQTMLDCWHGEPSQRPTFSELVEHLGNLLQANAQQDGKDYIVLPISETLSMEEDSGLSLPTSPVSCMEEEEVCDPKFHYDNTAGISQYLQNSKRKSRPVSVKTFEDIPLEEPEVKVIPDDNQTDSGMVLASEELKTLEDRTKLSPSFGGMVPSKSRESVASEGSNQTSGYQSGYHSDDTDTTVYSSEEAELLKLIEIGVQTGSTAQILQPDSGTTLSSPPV
# experiment.summary: Kinase inhibition assay (33P transfer), Kdr
# Assay type: biochemical
# condition.details: Table 3, class symbols; read-out: KDR-1

// known answers, use as guide
[
  {
    "compound": "COC(=O)c1ccc(-c2cc(Nc3ncnc(NCCCO)n3)[nH]n2)cc1 [Compound 818]",
    "system.under.test": "Kdr (Homo sapiens, UniProt P35968)",
    "reported": "> 12.2 µM"
  },
  {
    "compound": "CCOc1cccc(Nc2ncnc(N3CCCc4cc(C)ccc43)n2)c1 [Compound 892]",
    "system.under.test": "Kdr (Homo sapiens, UniProt P35968)",
    "reported": "1.11 to 6.64 µM"
  },
  {
    "compound": "OCc1cccc(Nc2ncnc(-c3cccnc3Nc3ccccc3)n2)c1 [Compound 1115]",
    "system.under.test": "Kdr (Homo sapiens, UniProt P35968)",
    "reported": "< 1.08 µM"
  },
  {
    "compound": "COc1cc(Nc2ncnc(-c3cccnc3N[C@H](C)c3ccccc3)n2)cc(OC)c1OC [Compound 1110]",
    "system.under.test": "Kdr (Homo sapiens, UniProt P35968)",
    "reported": "5.23 to 7.63 µM"
  }
]

For each of the compounds below, state IC50.
1. COc1ccc(Nc2ncnc(N(C)C3CCN(Cc4ccccc4)C3)n2)cc1OC (centres unmarked) [Compound 802]
2. CN(c1cccc(Cl)c1)c1ncnc(Nc2cccc(Cn3ccnn3)c2)n1 [Compound 678]
3. OCc1cccc(Nc2ncnc(-c3cccnc3NCc3ccc(F)cc3)n2)c1 [Compound 1104]
4. Cc1nccc(-c2cccc(Nc3ncnc(Nc4ccc5c(cnn5Cc5ccccc5)c4)n3)c2)n1 [Compound 901]
5. O=C(O)Cc1cccc(Nc2ncnc(-c3cccnc3Nc3ccccc3)n2)c1 [Compound 1094]
6. CCOc1ccc(Nc2ncnc(Nc3cc(-c4ccc(C(=O)OC)cc4)n[nH]3)n2)cc1 [Compound 879]
7. COc1cc(C)c(Nc2ncnc(Nc3cc(-c4ccc(Cl)cc4)n[nH]3)n2)cc1OC [Compound 1128]
8. COC(=O)c1ccc(-c2cc(Nc3ncnc(NCc4cccnc4)n3)[nH]n2)cc1 [Compound 809]

a:
1: > 10.7 µM; 2: 1.02 to 6.11 µM; 3: < 0.994 µM; 4: 0.824 to 4.94 µM; 5: < 1 µM; 6: > 10.4 µM; 7: 0.913 to 5.48 µM; 8: > 11.2 µM

For each of the compounds below, state IC50.
1. COc1cc(Nc2ncnc(-c3cccnc3Nc3cccc(Oc4ccccc4)c3)n2)cc(OC)c1OC [Compound 840]
2. c1coc(-c2cc(Nc3ncnc(Nc4ccc(-c5csnn5)cc4)n3)n[nH]2)c1 [Compound 891]
3. COc1ccc2[nH]cc(CCNc3ncnc(Nc4ccc(OC)c(OC)c4)n3)c2c1 [Compound 855]
4. COC(=O)c1ccc(-c2cc(Nc3ncnc(Nc4cccc(Cc5nnn[nH]5)c4)n3)[nH]n2)cc1 [Compound 991]
5. COc1cc(Nc2ncnc(-c3cccnc3NC3CCN(Cc4ccccc4)CC3)n2)cc(OC)c1OC [Compound 847]

a:
4.59 to 6.7 µM
< 0.991 µM
> 10.7 µM
5.11 to 7.46 µM
> 8.53 µM

====

# system.under.test: IGFR-1 (Homo sapiens)
# Construct: Kinases are expressed as either kinase domains or full length constructs; made in house
# Sequence (P08069 31-1367): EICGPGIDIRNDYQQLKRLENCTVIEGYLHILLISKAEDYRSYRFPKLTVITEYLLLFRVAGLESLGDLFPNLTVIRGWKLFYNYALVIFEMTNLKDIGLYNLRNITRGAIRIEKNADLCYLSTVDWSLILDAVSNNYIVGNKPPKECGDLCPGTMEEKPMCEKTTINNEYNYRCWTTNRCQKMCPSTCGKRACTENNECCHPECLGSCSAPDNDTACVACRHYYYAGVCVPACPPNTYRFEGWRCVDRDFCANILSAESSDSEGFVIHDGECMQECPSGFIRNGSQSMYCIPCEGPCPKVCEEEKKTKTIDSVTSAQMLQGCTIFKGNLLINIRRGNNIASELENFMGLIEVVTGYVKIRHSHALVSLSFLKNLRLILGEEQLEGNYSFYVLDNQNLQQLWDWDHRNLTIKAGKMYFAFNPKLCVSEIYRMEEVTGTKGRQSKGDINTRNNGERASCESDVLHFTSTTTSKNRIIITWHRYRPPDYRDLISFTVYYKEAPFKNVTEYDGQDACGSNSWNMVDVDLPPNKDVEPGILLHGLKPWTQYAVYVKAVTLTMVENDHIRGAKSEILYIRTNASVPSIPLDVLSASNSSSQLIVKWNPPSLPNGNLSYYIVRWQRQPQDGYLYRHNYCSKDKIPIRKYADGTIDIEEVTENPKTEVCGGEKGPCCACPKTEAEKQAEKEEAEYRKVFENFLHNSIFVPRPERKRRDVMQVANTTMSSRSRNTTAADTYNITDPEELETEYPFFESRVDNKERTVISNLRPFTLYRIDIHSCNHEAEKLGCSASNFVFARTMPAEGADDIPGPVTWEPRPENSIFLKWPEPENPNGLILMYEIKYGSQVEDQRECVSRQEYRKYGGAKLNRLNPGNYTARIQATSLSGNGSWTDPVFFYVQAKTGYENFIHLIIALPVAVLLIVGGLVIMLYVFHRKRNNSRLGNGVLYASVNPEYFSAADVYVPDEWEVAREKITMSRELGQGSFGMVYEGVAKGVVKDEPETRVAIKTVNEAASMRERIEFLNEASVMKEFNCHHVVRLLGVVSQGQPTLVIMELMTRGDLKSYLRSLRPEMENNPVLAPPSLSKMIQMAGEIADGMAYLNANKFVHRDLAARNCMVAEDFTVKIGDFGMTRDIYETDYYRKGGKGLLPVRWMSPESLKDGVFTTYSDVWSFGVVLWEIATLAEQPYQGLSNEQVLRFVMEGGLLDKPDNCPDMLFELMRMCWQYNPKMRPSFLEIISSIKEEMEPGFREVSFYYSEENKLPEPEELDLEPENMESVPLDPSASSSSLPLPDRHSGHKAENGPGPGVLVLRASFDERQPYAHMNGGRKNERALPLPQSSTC
# experiment.summary: Kinase inhibition assay, IGFR-1 (Table 2)
# Assay type: biochemical
# condition.details: Table 2, kinase inhibition class
Answer each item with its documented IC50.

[
  {
    "compound": "COc1cc(Nc2ncnc(N[C@@H]3CCCc4ccccc43)n2)cc(OC)c1OC [Compound 620]",
    "IC50": "> 11 µM"
  },
  {
    "compound": "COc1cc(Nc2ncnc(-n3c(NCc4ccc(N(C)C)cc4)nc4ccccc43)n2)cc(OC)c1OC [Compound 593]",
    "IC50": "< 0.76 µM"
  },
  {
    "compound": "CN(C)CCNc1ncnc(Nc2ccc3c(cnn3Cc3ccccc3)c2)n1 [Compound 733]",
    "IC50": "> 11.6 µM"
  },
  {
    "compound": "CCN1CCCC1CNc1ncnc(Nc2ccc(OC)c(OC)c2)n1 (centres unmarked) [Compound 781]",
    "IC50": "> 12.6 µM"
  }
]

For each of the compounds below, state IC50.
1. NC(=O)Cc1cccc(Nc2ncnc(Nc3cc(-c4ccccc4)n[nH]3)n2)c1 [Compound 578]
2. CCN(CC)CCOc1ccc(Nc2ncnc(-n3c(N)nc4ccccc43)n2)cc1OC [Compound 652]
3. Cc1ccc2c(c1)CCCN2c1ncnc(Nc2ccc3ncsc3c2)n1 [Compound 773]
4. COc1cc(Nc2ncnc(N[C@H]3CCCc4ccccc43)n2)cc(OC)c1OC [Compound 619]
5. COc1cc(Nc2ncnc(-n3c(NC4c5ccccc5CC4O)nc4ccccc43)n2)cc(OC)c1OC (centres unmarked) [Compound 579]
6. COc1cc(Nc2ncnc(Nc3ccc(NS(=O)(=O)c4ccc([N+](=O)[O-])cc4)cc3)n2)cc(OC)c1OC [Compound 692]
7. COc1cc(Nc2ncnc(-n3c(Nc4cccc(F)c4)nc4ccccc43)n2)cc(OC)c1OC [Compound 1053]

a:
1. < 1.04 µM
2. < 0.892 µM
3. 1.07 to 6.41 µM
4. > 11 µM
5. > 8.56 µM
6. 0.723 to 4.34 µM
7. > 9.23 µM

For each of the compounds below, state IC50.
1. COc1cc(Nc2ncnc(Nc3cccc(C(F)(F)F)c3)n2)cc(OC)c1OC [Compound 614]
2. COc1ccc(Nc2nc3ccccc3n2-c2ncnc(Nc3cc(OC)c(OC)c(OC)c3)n2)c(C)c1 [Compound 558]

a:
< 0.949 µM
> 8.76 µM

For each of the compounds below, state IC50.
1. COC(=O)c1sccc1Nc1ncnc(N2CCCc3cc(C)ccc32)n1 [Compound 767]
2. CN(c1cccc(Cl)c1)c1ncnc(Nc2ccc(F)c(Cl)c2)n1 [Compound 703]
3. CN1CCN(Cc2cccc(Nc3ncnc(Nc4ccc5c(cnn5Cc5ccccc5)c4)n3)c2)CC1 [Compound 552]
4. COc1cc(Nc2ncnc(Nc3cccc4ccccc34)n2)cc(OCCN2CCOCC2)c1OC [Compound 953]
5. COc1cc(Nc2ncnc(-c3cccnc3NC(C)C)n2)cc(OC)c1OC [Compound 1089]
6. Nc1nc2ccccc2n1-c1ncnc(Nc2cccnc2)n1 [Compound 658]

a:
["> 11.8 µM", "> 12.4 µM", "> 8.9 µM", "4.78 to 6.96 µM", "> 11.4 µM", "< 1.31 µM"]

For each of the compounds below, state IC50.
1. Nc1nc2ccccc2n1-c1ncnc(Nc2ccc(N3CCOCC3)cc2)n1 [Compound 479]
2. CN(c1cccc(Cl)c1)c1ncnc(Cl)n1 [Compound 701]
3. CN(c1cccc(Cl)c1)c1ncnc(NCCOCCO)n1 [Compound 746]

a:
["< 1.03 µM", "> 17.6 µM", "> 13.9 µM"]

For each of the compounds below, state IC50.
1. Cc1cccc(Nc2ncnc(N(C)c3cccc(Br)c3)n2)c1 [Compound 666]
2. COc1cc(Nc2ncnc(-n3c(NCc4ccc(C)cc4C)nc4ccccc43)n2)cc(OC)c1OC [Compound 584]

a:
["> 12.2 µM", "> 8.8 µM"]

For each of the compounds below, state IC50.
1. CN(c1cccc(Cl)c1)c1ncnc(Nc2ccc(S(C)(=O)=O)cc2)n1 [Compound 749]
2. COc1ccc(Nc2ncnc(NCCC#N)n2)cc1OC [Compound 787]
3. COc1cc(Nc2ncnc(N3c4ccccc4CCC3C)n2)cc(OC)c1OC (centres unmarked) [Compound 612]
4. COc1cc(Nc2ncnc(Nc3cc(-c4ccc(C(=O)O)cc4)n[nH]3)n2)cc(OC)c1OC [Compound 1004]
5. COc1cc(Nc2ncnc(-n3c(Nc4ccc(N(C)C)cc4)nc4ccccc43)n2)cc(OC)c1OC [Compound 1051]

a:
1. > 11.5 µM
2. > 15 µM
3. 5.89 to 8.59 µM
4. < 0.863 µM
5. 4.68 to 6.83 µM

For each of the compounds below, state IC50.
1. COc1cc(Nc2ncnc(N(C)c3cccc(Cl)c3)n2)cc(OC)c1 [Compound 712]
2. Brc1cccc(Nc2ncnc(Nc3cccc(Br)c3)n2)c1 [Compound 539]
3. COc1cc(C)c(Nc2ncnc(-n3c(N)nc4ccccc43)n2)cc1OC [Compound 524]
4. COc1cccc(Nc2ncnc(Nc3cc(-c4ccccc4)n[nH]3)n2)c1 [Compound 1011]
5. Cc1ccc2c(c1)CCCN2c1ncnc(Nc2ccc3c(c2)C(=O)OC3)n1 [Compound 763]

a:
1. > 12.1 µM
2. 5.7 to 8.31 µM
3. < 1.06 µM
4. < 1.11 µM
5. > 12.1 µM

q: // lookup IC50 for CN(c1ccc(F)c(Cl)c1)c1ncnc(Nc2cccc(Br)c2)n1 [Compound 713]
a: > 11 µM
